assay_target: CYP2C9 (Homo sapiens)
Construct: purchased BD GenTest, Woburn, Mass
Sequence (P11712 whole entry): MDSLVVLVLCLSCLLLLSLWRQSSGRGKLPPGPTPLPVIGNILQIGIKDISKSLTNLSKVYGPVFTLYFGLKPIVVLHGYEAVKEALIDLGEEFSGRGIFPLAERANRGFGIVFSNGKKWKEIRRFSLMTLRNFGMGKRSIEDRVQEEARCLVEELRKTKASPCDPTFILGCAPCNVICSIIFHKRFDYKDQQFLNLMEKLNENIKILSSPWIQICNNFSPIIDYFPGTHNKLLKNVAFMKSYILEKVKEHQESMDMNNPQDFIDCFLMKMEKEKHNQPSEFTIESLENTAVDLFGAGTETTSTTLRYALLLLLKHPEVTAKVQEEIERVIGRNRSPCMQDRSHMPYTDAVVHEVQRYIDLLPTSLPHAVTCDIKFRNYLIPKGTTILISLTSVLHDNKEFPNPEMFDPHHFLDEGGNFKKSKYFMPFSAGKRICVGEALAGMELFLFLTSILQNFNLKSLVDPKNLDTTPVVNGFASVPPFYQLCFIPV
protocol_details: Cytochrome P450 inhibition, CYP2C9
Format: in vitro ADME
I'd appreciate it if you could supply pIC50 values for the items below.
Numbers only, as −log10 of the molar value.

| molecule | obs_value |
| --- | --- |
| C/C1=C/C[C@@H](/C(C)=C/c2ccc(CO)cn2)OC(=O)C[C@H](O)C(C)(C)C(=O)[C@H](C)[C@@H](O)[C@@H](C)/C=C/C1 [KOSN-1703] | 5.40 |
| C/C1=C/C[C@@H](/C(C)=C/c2cc(C)on2)OC(=O)C[C@H](O)C(C)(C)C(=O)[C@H](C)[C@@H](O)[C@@H](C)/C=C/C1 [KOSN-1724] | 4.89 |

Please look at the following molecule next.
Using the record for COc1ccnc(/C=C(\C)[C@@H]2C/C=C(/C)C/C=C/[C@H](C)[C@H](O)[C@@H](C)C(=O)C(C)(C)[C@@H](O)CC(=O)O2)c1 [KOSN-1756] , report its pIC50.
5.15
